System: upland rice (Oryza sp., var. Tebonnet, RICE)
Assay: Pre-emerge test, crop safety
Format: in vivo
Settings: pre-emerge, 63 g ai/ha, 14 days after application, scale 0-100
With a cut-off of 10, any phytotoxicity rating RICE (crop damage) strictly below it is called Condition met; any phytotoxicity rating RICE (crop damage) meeting it or above is called Condition not met.

These solved cases illustrate the format of a correct answer.
Incoming: Is it true that phytotoxicity rating RICE (crop damage) reported for COc1c(Cl)cc(F)c(-n2c(=O)cc(C(F)(F)F)n(C)c2=O)c1NC(=O)c1ccc2cccc(F)c2c1 [2-161] is less than 10?
Outgoing: Condition met

Incoming: Cool, now COc1c(Cl)cc(F)c(-n2c(=O)cc(C(F)(F)F)n(C)c2=O)c1NC(=O)c1cc2ccccc2cc1C [2-155]
Outgoing: Condition not met

Incoming: Cool, now COc1c(Cl)cc(F)c(-n2c(=O)cc(C(F)(F)F)n(C)c2=O)c1NC(=O)C=Cc1ccccc1F [2-125]
Outgoing: Condition met

Incoming: Cool, now Cn1c(C(F)(F)F)cc(=O)n(-c2c(F)cc(Cl)cc2NC2CC2)c1=O [2-147]
Outgoing: Condition not met

Incoming: Cool, now COc1cc2ccccc2cc1C(=O)Nc1c(OC)c(Cl)cc(F)c1-n1c(=O)cc(C(F)(F)F)n(C)c1=O [2-152]
Outgoing: Condition met

Further cases:
Incoming: Is it true that phytotoxicity rating RICE (crop damage) reported for COc1c(Cl)cc(F)c(-n2c(=O)cc(C(F)(F)F)n(C)c2=O)c1NC(=O)CSC [2-168] is less than 10?
Outgoing: Condition not met

Incoming: Cool, now C=Cc1ccc(C(=O)N(C(=O)c2ccc(C=C)cc2)c2c(OC)c(Br)cc(F)c2-n2c(=O)cc(C(F)(F)F)n(C)c2=O)cc1 [2-183]
Outgoing: Condition met

Incoming: Cool, now C=Cc1ccc(C(=O)Nc2c(OC)c(Br)cc(F)c2-n2c(=O)cc(C(F)(F)F)n(C)c2=O)cc1 [2-182]
Outgoing: Condition not met

Incoming: Cool, now COc1c(Cl)cc(F)c(-n2c(=O)cc(C(F)(F)F)n(C)c2=O)c1NC(=O)CCc1cc(C)ccc1C [2-132]
Outgoing: Condition not met

Incoming: Cool, now CCOC(=O)C(C)SCC(=O)Nc1c(OC)c(Cl)cc(F)c1-n1c(=O)cc(C(F)(F)F)n(C)c1=O (centres unmarked) [2-171]
Outgoing: Condition met

Incoming: Cool, now CCOC(=O)C(C)Oc1ccc(-n2c(=O)cc(C(F)(F)F)n(C)c2=O)c(NC(=O)c2ccc3ccccc3c2)c1 (centres unmarked) [2-146]
Outgoing: Condition met

Incoming: Cool, now COc1c(C#N)cc(F)c(-n2c(=O)cc(C(F)(F)F)n(C)c2=O)c1NC(=O)C=Cc1ccccc1 [2-179]
Outgoing: Condition not met

----------
Each entry below carries its recorded Pre-emerge phytotoxicity rating, crop damage RICE.
System: upland rice (Oryza sp., var. Tebonnet, RICE)
Experiment: Pre-emerge test, crop safety
Assay type: in vivo
Settings: 63 g ai/ha; rating scale 0-100, 14 days after application
In your answer, state the number alone without any accompanying words.

Incoming: Quick one: Pre-emerge phytotoxicity rating, crop damage RICE of COc1c(Cl)cc(F)c(-n2c(=O)cc(C(F)(F)F)n(C)c2=O)c1CC(Cl)C(=O)OCC(Br)CBr (single isomer, unassigned) [14-30] ?
Outgoing: 0

Further cases:
Incoming: Quick one: Pre-emerge phytotoxicity rating, crop damage RICE of CCCOC(=O)C(Cl)Cc1c(OC)c(Cl)cc(F)c1-n1c(=O)cc(C(F)(F)F)n(C)c1=O (single isomer, unassigned) [14-6] ?
Outgoing: 15

Incoming: Cool, now COc1c(Cl)cc(F)c(-n2c(=O)cc(C(F)(F)F)n(C)c2=O)c1CC(Cl)C(=O)OCCOc1ccccc1 (single isomer, unassigned) [14-28]
Outgoing: 0

----------
Tested on: field corn (Zea mays L., var. Dekalb 535, CORN)
Assay: Pre-emerge test, crop safety
Assay type: in vivo
Settings: 250 g ai/ha; pre-emerge; rated 14 days after application; 0 = no damage, 100 = complete death
With a cut-off of 60, any Pre-emerge crop damage CORN (phytotoxicity rating, scale 0-100) strictly below it is called Condition met; any Pre-emerge crop damage CORN (phytotoxicity rating, scale 0-100) meeting it or above is called Condition not met.

Incoming: Is it true that Pre-emerge crop damage CORN (phytotoxicity rating, scale 0-100) reported for `COc1c(Cl)cc(F)c(-n2c(=O)cc(C(F)(F)F)n(C)c2=O)c1NC(C)=O` is less than 60?
Outgoing: Condition not met

Incoming: Cool, now `CC(C)Oc1c(Cl)cc(F)c(-n2c(=O)cc(C(F)(F)F)n(C)c2=O)c1N`
Outgoing: Condition not met

Incoming: Cool, now `Cn1c(C(F)(F)F)cc(=O)n(-c2c(F)cc(Cl)c(OCC#N)c2NC(=O)C(F)(F)F)c1=O`
Outgoing: Condition met

Incoming: Cool, now `Cc1c(Cl)cc(F)c(-n2c(=O)cc(C(F)(F)F)n(C)c2=O)c1N`
Outgoing: Condition not met

Incoming: Cool, now `COc1c(Cl)cc(F)c(-n2c(=O)c(N)c(C(F)(F)F)n(C)c2=O)c1N`
Outgoing: Condition met

Further cases:
Incoming: Is it true that Pre-emerge crop damage CORN (phytotoxicity rating, scale 0-100) reported for `COc1c(Cl)cc(F)c(-n2c(=O)cc(C(F)(F)F)n(C)c2=O)c1NS(=O)(=O)c1ccc(C)cc1` is less than 60?
Outgoing: Condition met

Incoming: Cool, now `C=C(C)C(=O)N(C(=O)C(=C)C)c1c(OC)c(Cl)cc(F)c1-n1c(=O)cc(C(F)(F)F)n(C)c1=O`
Outgoing: Condition met

----------
Each entry below carries its recorded Post-emerge Herbicidal Activity CHEAL.
System: lambsquarters (Chenopodium album, CHEAL)
Assay: Post-emerge test, greenhouse herbicide activity screening
Type: in vivo
Details: 250 g ai/ha; phytotoxicity rating 0-100 (0 no damage, 100 complete death), 14 days after application

Incoming: Return Post-emerge Herbicidal Activity CHEAL measured with lambsquarters (Chenopodium album, CHEAL) given this molecule: Cn1c(C(F)(F)F)cc(=O)n(-c2c(F)cc(Cl)c(OCC#N)c2N)c1=O [Compound 1-18]
Outgoing: 100

Incoming: Cool, now CCOC(=O)COc1c(Cl)cc(F)c(-n2c(=O)cc(C(F)(F)F)n(C)c2=O)c1N [Compound 1-59]
Outgoing: 100

Incoming: Cool, now COc1c(Cl)cc(F)c(-n2c(=O)cc(C(F)(F)F)n(C)c2=O)c1NC(=O)c1cccc(C)c1 [2-23]
Outgoing: 90

Further cases:
Incoming: Return Post-emerge Herbicidal Activity CHEAL measured with lambsquarters (Chenopodium album, CHEAL) given this molecule: CCOC(=O)C(C)Oc1c(Cl)cc(F)c(-n2c(=O)cc(C(F)(F)F)n(C)c2=O)c1N (stereo not drawn) [Compound 1-60]
Outgoing: 100

Incoming: Cool, now C=C(C)C(=O)N(C(=O)C(=C)C)c1c(OC)c(Cl)cc(F)c1-n1c(=O)cc(C(F)(F)F)n(C)c1=O [2-6]
Outgoing: 30

Incoming: Cool, now CCCc1ccc(C(=O)N(C(=O)c2ccc(CCC)cc2)c2c(OC)c(Cl)cc(F)c2-n2c(=O)cc(C(F)(F)F)n(C)c2=O)cc1 [2-29]
Outgoing: 90

----------
Test system: upland rice (Oryza sp., var. Tebonnet, RICE)
Assay: Pre-emerge test, crop safety
Format: in vivo
Conditions: pre-emerge, 250 g ai/ha, 14 days after application, rating scale 0-100
property-label: phytotoxicity rating RICE

The examples below pair each entry with its known result.
Incoming: Quick one: phytotoxicity rating RICE of `CCOC(=O)CC(C)=NNc1c(OC)c(Cl)cc(F)c1-n1c(=O)cc(C(F)(F)F)n(C)c1=O` ?
Outgoing: 100

Incoming: Cool, now COc1c(Cl)cc(F)c(-n2c(=O)cc(C(F)(F)F)n(C)c2=O)c1CC(C)(Cl)C(=O)OCC1CCCO1 (centres unmarked)
Outgoing: 95

Incoming: Cool, now COc1c(Cl)cc(F)c(-n2c(=O)cc(C(F)(F)F)n(C)c2=O)c1CC(C)(Cl)C(=O)OCCSC (centres unmarked)
Outgoing: 70

Incoming: Cool, now `COc1c(Cl)cc(F)c(-n2c(=O)cc(C(F)(F)F)n(C)c2=O)c1NN=C(C)C`
Outgoing: 100

Incoming: Cool, now `C=CC=NNc1c(OC)c(Cl)cc(F)c1-n1c(=O)cc(C(F)(F)F)n(C)c1=O`
Outgoing: 100

Further cases:
Incoming: Quick one: phytotoxicity rating RICE of CCOC(=O)C(Cl)(CC(=O)OC)Cc1c(OC)c(Cl)cc(F)c1-n1c(=O)cc(C(F)(F)F)n(C)c1=O (centres unmarked) ?
Outgoing: 0

Incoming: Cool, now `Cn1c(C(F)(F)F)cc(=O)n(-c2ccc(Cl)cc2C(=O)c2ccccc2)c1=O`
Outgoing: 0

Incoming: Cool, now CCOC(=O)C(Cl)(C#N)Cc1c(OC)c(Cl)cc(F)c1-n1c(=O)cc(C(F)(F)F)n(C)c1=O (centres unmarked)
Outgoing: 0
